Test: Cytotoxicity against African green monkey Vero cells assessed as cell growth inhibition by GFP fluorescence based assay
Format: toxicity
Conditions: African green monkey (Chlorocebus sabaeus)
MEASURED_METRIC: IC50 (µM)
Give bare numbers, in µM.

Observe how each entry below is paired with its result.
- SMI: "C[C@H](CC(=O)C[C@H](C)C(=O)OC[C@@](C)(O)[C@@H](O)CC[C@@H](C)[C@H]1C[C@H](O)[C@@]2(C)C3=C(CC[C@]12C)[C@@]1(C)CCC(=O)C(C)(C)[C@@H]1CC3)[C@H]1C[C@@H](O)[C@@]2(C)C3=C(C(=O)C[C@]12C)[C@@]1(C)CCC(=O)C(C)(C)[C@@H]1CC3=O"
  OUTPUT_UNIT: "µM"
  IC50: 19
- SMI: "C[C@H](CC(=O)C[C@H](C)C(=O)O[C@@H](CC[C@@H](C)[C@H]1C[C@H](O)[C@@]2(C)C3=C(CC[C@]12C)[C@@]1(C)CCC(=O)C(C)(C)[C@@H]1CC3)[C@](C)(O)CO)[C@H]1C[C@@H](O)[C@@]2(C)C3=C(C(=O)C[C@]12C)[C@@]1(C)CC[C@@H](O)C(C)(C)[C@@H]1CC3=O"
  OUTPUT_UNIT: "µM"
  IC50: 13

# ---- query compound ----
Problem: I'd like to know its IC50. The compound in question is C[C@H](CC(=O)C[C@@H](C)[C@H]1C[C@@H](O)[C@@]2(C)C3=C(C(=O)C[C@]12C)[C@@]1(C)CCC(=O)C(C)(C)[C@@H]1CC3=O)C(=O)O[C@H](CC[C@@H](C)[C@H]1CC[C@@]2(C)C3=CC[C@H]4C(C)(C)C(=O)CC[C@]4(C)C3=CC[C@]12C)[C@@](C)(O)CO
Result: 9

###

Assay: Cytotoxicity against African green monkey Vero cells assessed as cell growth inhibition by GFP fluorescence based assay
Assay type: toxicity
Details: African green monkey (Chlorocebus sabaeus)
MEASURED_METRIC: IC50 (µM)
Answers are plain numbers, in µM.

Problem: I'd like to know its IC50. The molecule in question is C.C[C@H](CC[C@@H](OC(=O)[C@@H](C)CC(=O)C[C@@H](C)[C@H]1C[C@@H](O)[C@@]2(C)C3=C(C(=O)C[C@]12C)[C@@]1(C)CC[C@@H](O)C(C)(C)[C@@H]1CC3=O)[C@@](C)(O)CO)[C@H]1CC[C@@]2(C)C3=CC[C@H]4C(C)(C)C(=O)CC[C@]4(C)C3=CC[C@]12C
Result: 9.2

###

Please go through the items and note down their pIC50.
Experiment: Cytotoxicity against African green monkey Vero cells assessed as cell growth inhibition by GFP fluorescence based assay
Type: toxicity
Conditions: African green monkey (Chlorocebus sabaeus)
pIC50: −log10 of the molar value.

Observe how each entry below is paired with its result.
- COMPOUND: "C[C@H](CC[C@H](O)[C@](C)(O)COC(=O)[C@@H](C)CC(=O)C[C@@H](C)[C@H]1C[C@@H](O)[C@@]2(C)C3=C(C(=O)C[C@]12C)[C@@]1(C)CCC(=O)C(C)(C)[C@@H]1CC3=O)[C@H]1CC[C@@]2(C)C3=CC[C@H]4C(C)(C)C(=O)CC[C@]4(C)C3=CC[C@]12C"
  pIC50: "< 4.28"
- COMPOUND: "C[C@H](CC[C@@H](O)[C@@](C)(O)COC(=O)[C@@H](C)CC(=O)C[C@@H](C)[C@H]1C[C@@H](O)[C@@]2(C)C3=C(C(=O)C[C@]12C)[C@@]1(C)CCC(=O)C(C)(C)[C@@H]1CC3=O)[C@H]1CC[C@@]2(C)C3=CC[C@H]4C(C)(C)C(=O)CC[C@]4(C)C3=CC[C@]12C"
  pIC50: "< 4.28"
- COMPOUND: "C[C@H](CC(=O)C[C@H](C)C(=O)O)[C@H]1C[C@H](O)[C@@]2(C)C3=C(C(=O)C[C@]12C)[C@@]1(C)CC[C@@H](O)C(C)(C)[C@@H]1CC3=O"
  pIC50: "< 4.01"
- COMPOUND: "C[C@H](CC[C@H](O)[C@](C)(O)COC(=O)[C@@H](C)CC(=O)C[C@@H](C)[C@H]1C[C@@H](O)[C@@]2(C)C3=C(C(=O)C[C@]12C)[C@@]1(C)CC[C@@H](O)C(C)(C)[C@@H]1CC3=O)[C@H]1CC[C@@]2(C)C3=CC[C@H]4C(C)(C)C(=O)CC[C@]4(C)C3=CC[C@]12C"
  pIC50: 4.62
- COMPOUND: "C[C@H](CC[C@@H](OC(=O)[C@@H](C)CC(=O)C[C@@H](C)[C@H]1C[C@@H](O)[C@@]2(C)C3=C(C(=O)C[C@]12C)[C@@]1(C)CC[C@@H](O)C(C)(C)[C@@H]1CC3=O)[C@@](C)(O)CO)[C@H]1CC[C@@]2(C)C3=C(CC[C@]12C)[C@@]1(C)CCC(=O)C(C)(C)[C@@H]1C[C@H]3O"
  pIC50: 4.77

Provide each entry's pIC50 from the list below.
1. C[C@H](CC(=O)C[C@H](C)C(=O)O)[C@H]1C[C@H](O)[C@@]2(C)C3=C(C(=O)C[C@]12C)[C@@]1(C)CCC(=O)C(C)(C)[C@@H]1CC3=O
2. C[C@H](CC[C@H](O)[C@](C)(O)CO)[C@H]1CC[C@@]2(C)C3=CC[C@H]4C(C)(C)C(=O)CC[C@]4(C)C3=CC[C@]12C [GANODERMANONTRIOL]
3. C[C@H](CC(=O)C[C@H](C)C(=O)O)[C@H]1C[C@H](O)[C@@]2(C)C3=C(C(=O)C[C@]12C)[C@@]1(C)CC[C@@H](O)C(C)(C)[C@@H]1CC3

Result:
1. < 4.01
2. < 3.97
3. < 4.00

Ref: ChEMBL document CHEMBL5370614
